# study_target: UBE2N (Homo sapiens, UniProt P61088)
# Sequence (P61088 whole entry): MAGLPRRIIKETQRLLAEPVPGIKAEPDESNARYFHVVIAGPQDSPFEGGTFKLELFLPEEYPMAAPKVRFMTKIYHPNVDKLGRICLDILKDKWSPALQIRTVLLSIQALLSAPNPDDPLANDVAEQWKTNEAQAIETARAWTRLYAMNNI
# assay: Cellular thermal shift assay (CETSA) in MOLM-13 cells
# conditions_used: MOLM-13, 1 hour, heat challenge at Tagg(75); read-out: EC50 of stabilization of UBE2N (CETSA)
pEC50: −log10 of the molar value.
The entries below are paired with their reported pEC50.
measure: pEC50

1. COc1ccc(C(=O)C=CSc2nc3ccc(C)cc3[nH]2)cc1 [UC-764865]    6.38
2. CCc1ccc(C(=O)C=CSc2nc3ccc(C)cc3[nH]2)cc1 [UC-764864]    5.66

###

# assay: Microsomal stability (mouse liver microsomes)
# Type: in vitro ADME, C57/Bl6
# conditions_used: mouse, liver microsomes; C57/Bl6, concentration 1 (mM), matrix 0.5 mg/ml; read-out: Microsomal Stability T ½
The entries below are paired with their reported half-life.
measure: half-life (min)

1) CCc1ccc(C(=O)C=CSc2nc3ccc(C)cc3[nH]2)cc1    4.99
2) COc1ccc(C(=O)C=CSc2nc3ccc(C)cc3[nH]2)cc1    4.97
